Biological target: Protein deacetylase HDAC6 (Homo sapiens)
Sequence (Q9UBN7 whole entry): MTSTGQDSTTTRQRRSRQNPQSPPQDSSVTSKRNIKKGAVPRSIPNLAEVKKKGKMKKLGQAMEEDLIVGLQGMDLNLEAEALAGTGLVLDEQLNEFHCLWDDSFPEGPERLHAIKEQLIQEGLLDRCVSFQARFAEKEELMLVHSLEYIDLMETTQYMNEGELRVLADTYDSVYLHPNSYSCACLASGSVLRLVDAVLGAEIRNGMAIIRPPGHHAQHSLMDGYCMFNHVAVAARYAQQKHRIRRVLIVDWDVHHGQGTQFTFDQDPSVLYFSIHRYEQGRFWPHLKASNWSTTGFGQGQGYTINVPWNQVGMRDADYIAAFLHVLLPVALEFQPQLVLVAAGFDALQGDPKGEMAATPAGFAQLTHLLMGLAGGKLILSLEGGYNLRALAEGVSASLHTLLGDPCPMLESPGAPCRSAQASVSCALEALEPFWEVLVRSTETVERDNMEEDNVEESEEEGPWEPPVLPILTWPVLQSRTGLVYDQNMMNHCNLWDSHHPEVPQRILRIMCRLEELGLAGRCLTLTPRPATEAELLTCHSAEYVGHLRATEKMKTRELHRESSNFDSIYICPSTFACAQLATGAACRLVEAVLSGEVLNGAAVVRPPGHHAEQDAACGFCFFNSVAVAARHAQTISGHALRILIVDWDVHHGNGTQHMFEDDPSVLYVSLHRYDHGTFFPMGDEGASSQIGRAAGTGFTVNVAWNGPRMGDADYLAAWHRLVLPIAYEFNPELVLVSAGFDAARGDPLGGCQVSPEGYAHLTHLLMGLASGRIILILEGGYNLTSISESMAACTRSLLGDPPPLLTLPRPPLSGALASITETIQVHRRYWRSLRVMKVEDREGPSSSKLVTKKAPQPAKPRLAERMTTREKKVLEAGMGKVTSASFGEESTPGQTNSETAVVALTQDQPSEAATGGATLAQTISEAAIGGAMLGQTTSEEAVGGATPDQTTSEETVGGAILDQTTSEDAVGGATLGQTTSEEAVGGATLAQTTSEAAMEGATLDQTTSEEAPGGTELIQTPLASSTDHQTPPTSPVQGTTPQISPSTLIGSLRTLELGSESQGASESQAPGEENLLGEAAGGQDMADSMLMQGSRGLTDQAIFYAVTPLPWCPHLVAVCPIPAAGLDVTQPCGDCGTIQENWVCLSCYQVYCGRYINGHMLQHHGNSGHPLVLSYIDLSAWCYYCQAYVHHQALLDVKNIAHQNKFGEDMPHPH
pIC50: −log10 of the molar value.
Values of pIC50 greater than or equal to 6 map to class 1; values below map to class 0.

For orientation, consider the following solved cases.
[[record]]
smiles_code = "CN(Cc1ccccc1)Cc1ccc(C(=O)C(F)(F)F)s1"
group = "class 1"

[[record]]
smiles_code = "O=C(NCC1CCCCC1)c1ccc(C(=O)C(F)(F)F)cc1"
group = "class 0"

[[record]]
smiles_code = "CC(=O)c1ccc(C(=O)N[C@H](C)c2ccccc2)s1"
group = "class 0"

[[record]]
smiles_code = "C[C@H](NC(=O)c1ccc(C(=O)C(F)(F)F)s1)c1ccccc1"
group = "class 1"

[[record]]
smiles_code = "CCOC(=O)c1ccc(C(=O)C(F)(F)F)s1"
group = "class 1"


State whether the measured pIC50 reaches 6, counting equality as reaching it, for `O=C(NCC1CCCCC1)c1cc(C(=O)C(F)(F)F)cs1`
class 0

Hello, I need to know if `O=C(NCC1CCCCC1)c1ccc(C(=O)C(F)(F)F)s1` has measured pIC50 not below 6. Thanks!
class 1

Item `O=C(NCCc1ccccc1)c1ccc(C(=O)C(F)(F)F)s1` with pIC50 of 6 or above?
class 1

Check this molecule for pIC50 at or above 6: `O=C(c1ccc(C(=O)C(F)(F)F)s1)N1CCc2ccccc21`
class 1
